Biological target: T1, recombinant human CD40 (ECD)-his (human, UniProt P25942 21-193)
T1 construct: Bought protein; also called hCD40(ECD)-his; TNFRSF5
T1 sequence (P25942 21-193): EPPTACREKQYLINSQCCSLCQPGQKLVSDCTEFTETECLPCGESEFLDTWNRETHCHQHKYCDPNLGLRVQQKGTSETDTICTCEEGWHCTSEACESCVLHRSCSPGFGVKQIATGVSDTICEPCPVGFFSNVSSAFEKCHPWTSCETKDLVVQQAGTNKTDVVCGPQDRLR
Test: ELISA, hCD40(ECD)-his coated
experimentalEndpoint: EC50 (µg/mL)
Entry rule: numbers only, all in µg/mL.

GET /value?item= 7B4 (mouse monoclonal antibody) (antibody, V domains shown) VH: EVQLQESGPGLVKPSQSLSLTCSVTGYSITTNYYWNWIRQFPGNKLEWMGYIKYDGSNNYNPSLKNRISITRDTSKNQFFLKLNSVTTEDTATYYCARLDYWGQGTSVTVSS VL: DIVLTQSPLSLPVSLGDQASISCRSSQSLENSNGNTFLNWFLQKPGQSPQLLIYKVSNRFSGVLDRFSGTGSGTDFTLTISRVEAEDLGVYFCLQVTHVPFTFGSGTKLEIK &field=EC50 returns 0.0153

Origin of measurements: patent US10654939
